Can you tell me TGI for the items I'm about to list?
Test system: DLD-1 colon
Assay Protocol: NCI tumour cell line growth inhibition, 48 h

query: Name the recorded TGI for CC1=C(C(=O)NCc2ccccc2)C(/C=C/c2ccccc2)C(C(=O)NCc2ccccc2)=C(C)N1 .
result: > 100 µM

query: Name the recorded TGI for O=S1(=O)c2ccccc2NC(c2ccc3ccccc3c2)CC1c1ccccc1F (centres undefined) .
result: > 100 µM

query: Name the recorded TGI for CN(C)CC[N+]1=Nc2cccc3cccc(c23)N1 .
result: > 59.8 µM

query: Name the recorded TGI for COC1(OC)CCC2C1C1CCC(OC)(OC)C21 (centres undefined) .
result: > 50 µM

query: Name the recorded TGI for O=C(COc1ccc(Br)cc1Br)N1N=C(c2ccc([N+](=O)[O-])o2)CC1(O)c1ccccc1 (centres undefined) .
result: 30.2 µM

query: Name the recorded TGI for CCCCCCCCCCCOc1ccc(C(=O)C(=O)c2ccc(OCCCCCCCCCCC)c(OCCCCCCCCCCC)c2)cc1OCCCCCCCCCCC .
result: > 100 µM

query: Name the recorded TGI for N#CN=C(N(Cc1ccccc1)Cc1ccccc1)N(Cc1ccccc1)Cc1ccccc1 .
result: > 100 µM

query: Name the recorded TGI for COc1ccc2c3c1C(=O)CCCC3CO2 (centres undefined) .
result: > 100 µM

query: Name the recorded TGI for CC(=O)NC1=C(NCCC(C)C)C(=O)c2ccccc2C1=O .
result: > 50 µM

query: Name the recorded TGI for CNS(=O)(=O)NNS(=O)(=O)c1ccc2ccccc2c1 .
result: > 100 µM

query: Name the recorded TGI for CN1C(=O)C(C)(C)C2(SC(C)(C)C2(C)C)N(C)C1=S (centres undefined) .
result: > 100 µM

query: Name the recorded TGI for COC1CCC2C(NS(=O)(=O)c3ccc(C)cc3)CCCC2O1 (centres undefined) (tested in a mixture with another compound) .
result: > 34.5 µM

query: Name the recorded TGI for COc1nc(N)c(C(=O)CCl)c(=O)n1C .
result: 27.6 µM

query: Name the recorded TGI for [N-]=[N+]=Nc1cc(=O)oc2ccccc12 .
result: > 100 µM

query: Name the recorded TGI for O=C1C(=O)N(c2ccc(Cl)cc2Cl)C(=O)C(=O)C1c1nc2ccccc2s1 .
result: > 92.2 µM

query: Name the recorded TGI for CC1C=C(CCCCCCCCCCCC[C@@H](O)[C@@H]2CC[C@@H]([C@@H]3CC[C@@H](C(O)CCCCCCCCCCCCC4=C[C@H](C)OC4=O)O3)O2)C(=O)O1 (some centres undefined) .
result: > 100 µM

query: Name the recorded TGI for O=C1/C(=C/c2ccccc2)CN(C(=O)C(Cl)(Cl)Cl)C/C1=C\c1ccccc1 .
result: 4.28 µM

query: Name the recorded TGI for CC(=O)Nc1ccc(-c2nnc(SCC(=O)Nc3ccc([N+](=O)[O-])cc3)o2)cc1 .
result: 26.4 µM

query: Name the recorded TGI for O=C([O-])CC(=O)[O-].O=C([O-])CC(=O)[O-].[K+].[Pd+2] .
result: > 100 µM

---

System: NCI-H23 lung
Assay Protocol: NCI tumour cell line growth inhibition, 48 h
Experimental Endpoint: TGI

query: Name the recorded TGI for O=C(CCC(=O)c1ccc(Cl)cc1)NO .
result: > 100 µM

query: Name the recorded TGI for Cn1cc(C2=C(c3cn(C)c4ncccc34)C(=O)NC2=O)c2ccccc21 .
result: > 25 µM

query: Name the recorded TGI for CCOC(=O)C(NC(C)=O)(Nc1ccc(F)cc1)C(F)(F)F (stereo unspecified) .
result: > 100 µM

query: Name the recorded TGI for Cc1ccc(NC2=C(Cl)C(=O)N(Cc3ccccc3)C2=O)cc1O .
result: > 100 µM

query: Name the recorded TGI for COc1cc2c(cc1OC)C(c1ccccc1CCCCl)=NCC2 .
result: > 100 µM

query: Name the recorded TGI for COC1CCC(N2C(=O)CNc3ncc(-c4ccc(C(C)(C)O)nc4)nc32)CC1 (stereo unspecified) .
result: > 45.1 µM

query: Name the recorded TGI for O=S1(=O)NC(=NCc2c[nH]c3ccccc23)N(c2ccccc2)c2ccncc21 .
result: > 100 µM

query: Name the recorded TGI for Cc1ccc2c(=O)cc(-c3ccc(F)cc3)[nH]c2n1 .
result: > 100 µM

query: Name the recorded TGI for O=C1CC(c2ccc3c(c2)OCO3)Nc2ccccc21 (stereo unspecified) .
result: 32.7 µM

query: Name the recorded TGI for CCOC(=O)N1CCC2(CC1)C[C@](C)(C(C)=O)C(C)O2 (stereo partly specified) .
result: > 100 µM

query: Name the recorded TGI for Cc1coc2c1CC1(C)C(CCC(O)C1C)C2 (stereo unspecified) .
result: > 100 µM

query: Name the recorded TGI for CC(=O)NNc1nc(C)c(C(=O)NNC(=O)C(=O)Nc2c(Cl)cc([N+](=O)[O-])cc2Cl)s1 .
result: 36.7 µM

query: Name the recorded TGI for CCCCOC(=O)C1OC(O[C@H]2CCC3(C)C(CCC4(C)C3CC=C3C5CC(C)(C)CCC5(C(=O)O)CC[C@]34C)C2(C)C)C(OC2OC(CO)C(O)C(O)C2O)C(OC2OC(CO)C(O)C(O)C2O)C1O (stereo partly specified) .
result: 47.6 µM

query: Name the recorded TGI for CN(C)CC[N+]1=Nc2cccc3cccc(c23)N1 .
result: > 100 µM

query: Name the recorded TGI for N#CC(c1ccc(Cl)cc1)c1cccc(C(C#N)c2ccc(Cl)cc2)n1 (stereo unspecified) .
result: 57 µM

query: Name the recorded TGI for O=C(CC1(O)C(=O)Nc2c(Cl)cc(Cl)cc21)c1ccc(Br)cc1Br (stereo unspecified) .
result: 21.2 µM

query: Name the recorded TGI for COC(=O)c1cc2c(n1S(=O)(=O)c1ccc(C)cc1)C(=O)C(=O)c1[nH]cc(C(=O)OCc3ccccc3)c1-2 .
result: 0.211 µM

query: Name the recorded TGI for Clc1ccc(/C=C/c2nc3ccccc3s2)cc1Cl .
result: > 100 µM

query: Name the recorded TGI for NC(=O)c1sc(-n2cnc3ccccc32)cc1OCc1ccccc1Br .
result: > 25 µM

query: Name the recorded TGI for CN1C(=O)C(C)(C)C2(SC(C)(C)C2(C)C)N(C)C1=S (stereo unspecified) .
result: > 100 µM

query: Name the recorded TGI for COc1cc(/C=C/C(=N\NS(=O)(=O)c2ccc(C)cc2)c2sc(NNC(C)=O)nc2C)ccc1O .
result: > 100 µM

query: Name the recorded TGI for C=C1c2nc3ccccc3n2C=C(c2ccccc2)N1c1ccc([N+](=O)[O-])cc1 .
result: 38.5 µM

query: Name the recorded TGI for O=C(O)c1cccc2c1/C(=N/Nc1ccccc1)CC2 .
result: > 100 µM

query: Name the recorded TGI for C/C(CC(=O)CCC(=O)Nc1cccc(C(F)(F)F)c1)=N\NC(=O)NN .
result: > 100 µM

query: Name the recorded TGI for [N-]=[N+]=Nc1cc(=O)oc2ccccc12 .
result: > 100 µM

query: Name the recorded TGI for Cc1ccc(C(=O)/C(=C/c2ccc([N+](=O)[O-])cc2)SCc2ccc(Cl)cc2)cc1 .
result: 20.7 µM

query: Name the recorded TGI for CCOC(=O)[C@]1(OC(C)=O)C[C@H](OC(C)=O)[C@@H](C(F)COP(=O)(OCc2ccccc2)OCc2ccccc2)O1 (stereo partly specified) .
result: > 100 µM

query: Name the recorded TGI for CCc1ccc(CCN2CCCCC2)nc1 .
result: > 100 µM

query: Name the recorded TGI for CNC(=O)C(C)C1CCC2(C)C=CC(=O)C(C)=C2C1O (stereo unspecified) .
result: > 100 µM

query: Name the recorded TGI for CCOC(=O)CN1C(=O)c2cccc3cc([N+](=O)[O-])cc(c23)C1=O .
result: 4.52 µM

query: Name the recorded TGI for Nc1ccccc1SC(C[N+](=O)[O-])c1ccc2c(c1)OCO2 (stereo unspecified) .
result: 8.04 µM

query: Name the recorded TGI for Cc1cccc(/C=N/NC(=S)Nc2ccccc2)n1 .
result: > 72.7 µM

query: Name the recorded TGI for Cc1cc(I)cc(CN(C)CCCCN2CCCCC2)c1O .
result: > 100 µM

query: Name the recorded TGI for O=c1[nH][nH]c(=O)n1Cc1ccccc1Cn1c(=O)[nH][nH]c1=O .
result: > 100 µM

query: Name the recorded TGI for COc1cc(Cc2cnc(/N=C3\C(=O)N(CN4CCN(c5c(F)cc6c(=O)c(C(=O)O)cn(C7CC7)c6c5OC)CC4C)c4ccc(F)cc43)nc2N)cc(OC)c1OC (stereo unspecified) .
result: 42.9 µM

query: Name the recorded TGI for Cc1cn(C2CC(n3cc(Cn4cc(I)c(=O)[nH]c4=O)nn3)C(CO)O2)c(=O)[nH]c1=O (stereo unspecified) .
result: > 100 µM

query: Name the recorded TGI for O=c1[nH]cc(N=Cc2cc(Cl)cc(Cl)c2O)c(=O)[nH]1 .
result: 75.3 µM

query: Name the recorded TGI for C[C@@]12C[C@@H](c3ccccc3O1)N1CCCCSC1=N2 .
result: > 100 µM

query: Name the recorded TGI for CCOc1cc2c(cc1O)/C(=N\OC)C[C@@H]1[C@@H]2CC[C@]2(C)[C@@H](O)CC[C@@H]12 .
result: > 39.2 µM

query: Name the recorded TGI for O=C1/C(=C/c2ccccc2)CN(C(=O)C(Cl)(Cl)Cl)C/C1=C\c1ccccc1 .
result: 6.8 µM

query: Name the recorded TGI for CC1(C)N=C(/C(Cl)=[N+](/[O-])C(=O)c2ccc(F)cc2)C(C)(C)N1O .
result: 42.8 µM
